Please respond with reported growth for every item in the list.
System: OVCAR-4 ovarian
assayExplanation: NCI-60 one-dose screen, 48 h (100 = growth as untreated, 0 = no growth, -100 = all killed)
studyConditions: 10 µM unless noted
Method: Growth inhibition of the OVCAR-4 human tumor cell line is measured as a screen for anti-cancer activity. Cells are grown in 96 well plates and exposed to the test compound for 48 hours. Compounds are tested at a single concentration, which is 10^-5 M for most compounds. The reported endpoint is percent growth (GI% or GIPRCNT), where numbers from 0 - 100% represent growth inhibition, and numbers from -100% - 0 represent cell death. For example, a value of 40 represents 60% growth inhibition. […]
About 83,000 compounds went through this panel and 20% of them were active in at least one assay; those are over-represented in the sample as a whole.
Express it in %; write the number only.

[in] Look up and state reported growth for O=C(COCc1c(-c2ccccc2)no[n+]1[O-])Nc1ccc(C(=O)/C=C/c2ccc3c(c2)OCO3)cc1
[out] 114

[in] Look up and state reported growth for COc1cc(OC)c(/C=C/S(=O)(=O)Cc2ccc(OC)c(N)n2)c(OC)c1
[out] 42.1

[in] Look up and state reported growth for COc1ccc(C/C(C)=C(\c2ccc(OCCN3CCCCCC3)cc2)c2ccc(OC(=O)C3CCCCC3)cc2)cc1
[out] 71.7

[in] Look up and state reported growth for Cc1cc(Cl)ccc1Nc1nc(C(F)(F)F)ccc1C(=O)N/N=C/c1ccc(F)cc1
[out] 5.75

[in] Look up and state reported growth for CCOC(=O)C(CC)n1c(=O)c2cc(OC)c(OC)cc2c2cnc3[nH]ccc3c21 (stereo not given)
[out] 93.3

[in] Look up and state reported growth for COc1cccc(-c2nc3sccn3c2-c2ccnc(NCCCNS(=O)(=O)c3ccccc3)c2)c1
[out] 27.6

[in] Look up and state reported growth for O=C(/C=C/c1ccc(Cl)cc1)c1ccc(O)c(CN2CCN(c3cc4c(cc3F)c(=O)c(C(=O)O)cn4C3CC3)CC2)c1
[out] 89.2

[in] Look up and state reported growth for CCOC(=O)c1cnc2cc(Cl)c(F)cc2c1Nc1cccc(NS(C)(=O)=O)c1
[out] 95.5

[in] Look up and state reported growth for CCCCCC(=O)Oc1ccc(/C(=C(\C)c2ccccc2)c2ccc(OCCN(CC)CC)cc2)cc1
[out] 84

[in] Look up and state reported growth for Cc1ccc2c(c1)C(=O)c1c-2c(OCCCN(C)C)nc2ccccc12
[out] 27.3

[in] Look up and state reported growth for COc1ccc2nc3cc(Cl)ccc3c(N3CCN(c4nccc(NCc5ccccc5)n4)CC3)c2c1
[out] 67.3

[in] Look up and state reported growth for O=C(/C=C/c1cccc(Br)c1)c1ccccc1
[out] 90.6

[in] Look up and state reported growth for COc1ccc(CCN2CC=Cn3c2nc2ccccc2c3=O)cc1
[out] 41.6

[in] Look up and state reported growth for CCCN(CCC)CN(CCC)CCC
[out] 117

[in] Look up and state reported growth for C=C1CCC2C3(C)COC(c4ccccc4Br)OC3CCC2(C)C1C/C=C1/C(=O)OCC1OC(C)=O (stereo not given)
[out] -62.2
